In this section we review reported composite z-score values for a set of compounds.
target or system: Torsin-1A (Homo sapiens) (UniProt O14656)
Sequence (O14656 whole entry, looked up): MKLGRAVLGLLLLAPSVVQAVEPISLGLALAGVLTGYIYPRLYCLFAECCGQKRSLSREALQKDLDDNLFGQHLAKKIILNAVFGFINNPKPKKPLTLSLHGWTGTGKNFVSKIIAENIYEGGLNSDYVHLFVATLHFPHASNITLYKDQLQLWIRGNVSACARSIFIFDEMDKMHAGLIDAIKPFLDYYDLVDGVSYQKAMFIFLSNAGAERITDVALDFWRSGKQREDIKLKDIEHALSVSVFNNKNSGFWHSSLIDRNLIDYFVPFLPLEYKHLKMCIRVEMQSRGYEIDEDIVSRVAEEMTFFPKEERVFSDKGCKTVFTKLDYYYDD
experiment summary: torsin A mutant lysate binding on microarrays – cell lysate, small-molecule microarray, COS7 lysate, 635/667 nm fluorescence, primary screen (AID 1150);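 note: score pools 667 nm emission and signal to noise measuring lysate protein binding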
run conditions: COS7 hTOR1A mutant lysate, 635 nm fluorescence, higher = more signal
assay endpoint: composite z-score

compound | assay endpoint | recorded measurement
C=CCN(Cc1ccccc1)C(=O)C(c1cccs1)N(C(=O)/C=C\C(=O)O)c1ccc(CCOCCO)cc1 (centres undefined) | composite z-score | -2.48
CC(=CC1CCCCC1)[C@@H](NC(=O)c1cccnc1)c1ccc(-c2ccccc2)cc1 | composite z-score | -0.278
CC[C@@H]1C=C(C(=O)O)[C@H](c2cccc3ccccc23)N1S(=O)(=O)c1ccc(C)cc1 | composite z-score | 0.331
CC1CC/C=C\[C@H]2OC34C=CCN(Cn5nnc6ccccc65)C(=O)[C@H]3N(CCCCCO)C(=O)[C@@H]4C2C(=O)O1 (some centres undefined) | composite z-score | -1.12
